Biological target: HER2/V842I (Homo sapiens, UniProt P04626, V842I)
Experiment: In-Cell Western phospho-HER2, MCF10A_HER2/V842I
Can you tell me pIC50 for the items I'm about to list?
Answers are plain numbers, as −log10 of the molar value.

- Compound: "C=CC(=O)N1C[C@H](n2c(C#CC3CC3)c(C(=O)N[C@H](C)c3ccccc3)c3c(N)ncnc32)C[C@@H]1C [TAS2940]"
  Observed Property: "pIC50"
  Assay Result: 8.48

// below: pIC50 requested for another compound
Query: Please give measured pIC50 of the following entry: C=CC(=O)N1CCC(Oc2cc3c(Nc4ccc(Cl)c(Cl)c4F)ncnc3cc2OC)CC1 [Poziotinib, poziotinib]
Reply: 8.74
